For Serratia marcescens IF03759, measured MIC is reported for the entries below.
MEASUREMENT_NAME: MIC (µg/mL)

>>> observed_measurement("CO/N=C(\\C(=O)N[C@@H]1C(=O)N2C(C(=O)O)=C(CSc3cc(C)nc4nc(N)nn34)CS[C@H]12)c1csc(N)n1")
0.2
>>> observed_measurement("CO/N=C(\\C(=O)N[C@@H]1C(=O)N2C(C(=O)O)=C(CSc3nnc4nc(C(=O)O)cc(O)n34)CS[C@H]12)c1csc(N)n1")
1.57

* * *

tested on: Pseudomonas aeruginosa IF03445; experiment: Antibacterial activity in vitro, agar plate dilution method (MIC); assay type: cell-based; conditions: 10^6 cells/ml, Mueller Hinton agar, 37° C., 20 hours
MEASUREMENT_NAME: log10(MIC) (log10 of the value in µg/mL)

>>> observed_measurement("CO/N=C(\\C(=O)N[C@@H]1C(=O)N2C(C(=O)O)=C(CSc3nc4ncc(C(=O)O)c(O)n4n3)CS[C@H]12)c1csc(N)n1")
0.80
>>> observed_measurement("CO/N=C(\\C(=O)N[C@@H]1C(=O)N2C(C(=O)O)=C(CSc3cc(C)nc4ncnn34)CS[C@H]12)c1csc(N)n1")
1.70
>>> observed_measurement("Cc1cc(SCC2=C(C(=O)O)N3C(=O)[C@@H](NC(=O)/C(=N\\OC(=O)c4cccs4)c4csc(N)n4)[C@H]3SC2)n2nc(C(=O)O)nc2n1")
1.70
>>> observed_measurement("CO/N=C(\\C(=O)N[C@@H]1C(=O)N2C(C(=O)O)=C(CSc3cc(C)nc4nc(CC(=O)O)nn34)CS[C@H]12)c1csc(N)n1")
1.40
>>> observed_measurement("CC(=O)Oc1cc(C(=O)O/N=C(\\C(=O)N[C@@H]2C(=O)N3C(C(=O)O)=C(CSc4cc(C)nc5nc(C(=O)O)nn45)CS[C@H]23)c2csc(N)n2)cc(OC(C)=O)c1OC(C)=O")
0.20
>>> observed_measurement("CO/N=C(\\C(=O)N[C@@H]1C(=O)N2C(C(=O)O)=C(CSc3cc(O)nc4nc(C(=O)O)nn34)CS[C@H]12)c1csc(N)n1")
1.10
>>> observed_measurement("Cc1cc(SCC2=C(C(=O)O)N3C(=O)[C@@H](NC(=O)/C(=N\\OC(=O)c4ccc5c(c4)OCO5)c4csc(N)n4)[C@H]3SC2)n2nc(C(=O)O)nc2n1")
1.40
>>> observed_measurement("CO/N=C(\\C(=O)N[C@@H]1C(=O)N2C(C(=O)O)=C(CSc3cc(C)nc4nc(N)nn34)CS[C@H]12)c1csc(N)n1")
1.70
